For each of the binders below, state its luciferase signal in T cell activation, EC50.
Target: T1, human TIGIT over-expressed on cells (human, UniProt Q495A1 22-244)
T1 sequence: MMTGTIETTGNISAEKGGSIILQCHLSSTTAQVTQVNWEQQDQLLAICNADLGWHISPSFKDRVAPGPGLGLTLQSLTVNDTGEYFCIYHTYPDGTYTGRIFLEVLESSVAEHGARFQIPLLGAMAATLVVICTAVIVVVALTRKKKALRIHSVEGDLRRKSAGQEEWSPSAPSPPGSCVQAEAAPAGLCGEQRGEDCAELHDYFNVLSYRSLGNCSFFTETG
Assay: cell-based or functional assay
Answer in nM, number only, no unit symbol.

Read off the recorded luciferase signal in T cell activation, EC50 for 83G6H11C12 (antibody, V domains shown, Mouse monoclonal antibody; also called mouse anti-human TIGIT monoclonal antibody 83G6H11C12) VH: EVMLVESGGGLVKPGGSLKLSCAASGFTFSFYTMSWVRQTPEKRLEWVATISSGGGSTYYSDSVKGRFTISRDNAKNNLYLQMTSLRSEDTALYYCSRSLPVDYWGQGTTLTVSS VL: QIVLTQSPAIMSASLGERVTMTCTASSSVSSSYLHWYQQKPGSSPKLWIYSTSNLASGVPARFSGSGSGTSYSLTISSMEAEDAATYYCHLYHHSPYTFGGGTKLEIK
4.4

Give a short answer stating reported luciferase signal in T cell activation, EC50 for 100C4E7D11 (antibody, V domains shown, Mouse monoclonal antibody; also called mouse anti-human TIGIT monoclonal antibody 100C4E7D11) VH: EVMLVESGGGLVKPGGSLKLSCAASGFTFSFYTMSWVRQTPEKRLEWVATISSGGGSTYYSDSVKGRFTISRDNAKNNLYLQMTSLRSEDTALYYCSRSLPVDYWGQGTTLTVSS VL: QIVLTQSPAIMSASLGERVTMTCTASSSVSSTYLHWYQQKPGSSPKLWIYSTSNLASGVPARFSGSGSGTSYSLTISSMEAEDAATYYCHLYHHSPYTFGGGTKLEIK .
3.46

Answer with reported luciferase signal in T cell activation, EC50 of 121C2F10B5 (antibody, V domains shown, Mouse monoclonal antibody; also called mouse anti-human TIGIT monoclonal antibody 121C2F10B5) VH: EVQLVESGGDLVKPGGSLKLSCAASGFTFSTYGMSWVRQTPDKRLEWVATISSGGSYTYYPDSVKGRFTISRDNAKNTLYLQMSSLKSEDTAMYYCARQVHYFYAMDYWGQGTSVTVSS VL: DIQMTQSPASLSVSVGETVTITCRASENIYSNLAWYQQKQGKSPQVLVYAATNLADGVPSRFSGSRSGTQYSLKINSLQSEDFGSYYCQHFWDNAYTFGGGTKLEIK
4.38

Give reported luciferase signal in T cell activation, EC50 value for 92E9D4B4 (antibody, V domains shown, Mouse monoclonal antibody; also called mouse anti-human TIGIT monoclonal antibody 92E9D4B4) VH: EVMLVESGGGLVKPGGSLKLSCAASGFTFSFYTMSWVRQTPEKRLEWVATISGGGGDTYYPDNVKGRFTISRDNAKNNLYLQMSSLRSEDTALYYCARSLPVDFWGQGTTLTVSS VL: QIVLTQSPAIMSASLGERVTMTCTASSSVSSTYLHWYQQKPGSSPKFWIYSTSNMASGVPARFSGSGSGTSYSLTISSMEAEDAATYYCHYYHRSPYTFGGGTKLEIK
3.9

Look up and state reported luciferase signal in T cell activation, EC50 for 104G12E12G2 (antibody, V domains shown, Mouse monoclonal antibody; also called mouse anti-human TIGIT monoclonal antibody 104G12E12G2) VH: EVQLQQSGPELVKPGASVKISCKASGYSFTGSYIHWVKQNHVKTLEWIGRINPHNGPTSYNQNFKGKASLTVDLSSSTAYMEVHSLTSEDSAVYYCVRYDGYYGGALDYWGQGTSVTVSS VL: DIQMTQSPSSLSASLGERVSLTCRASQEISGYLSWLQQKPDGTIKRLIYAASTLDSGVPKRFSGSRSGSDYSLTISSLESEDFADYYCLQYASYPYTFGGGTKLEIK
6.42

Provide one value: measured luciferase signal in T cell activation, EC50 of 64G1E9B4 (antibody, V domains shown, Mouse monoclonal antibody; also called mouse anti-human TIGIT monoclonal antibody 64G1E9B4) VH: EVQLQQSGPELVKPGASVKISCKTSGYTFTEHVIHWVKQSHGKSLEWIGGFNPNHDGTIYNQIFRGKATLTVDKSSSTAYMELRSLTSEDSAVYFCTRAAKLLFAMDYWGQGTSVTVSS VL: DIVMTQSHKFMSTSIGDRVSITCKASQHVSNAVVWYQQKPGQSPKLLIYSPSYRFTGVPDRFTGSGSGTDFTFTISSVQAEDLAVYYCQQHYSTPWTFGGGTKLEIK
1.64

Item 128E3G7F5 (antibody, V domains shown, Mouse monoclonal antibody; also called mouse anti-human TIGIT monoclonal antibody 128E3G7F5) VH: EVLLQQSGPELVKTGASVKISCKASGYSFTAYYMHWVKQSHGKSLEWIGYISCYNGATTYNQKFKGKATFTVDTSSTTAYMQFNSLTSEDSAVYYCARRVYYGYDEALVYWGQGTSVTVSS VL: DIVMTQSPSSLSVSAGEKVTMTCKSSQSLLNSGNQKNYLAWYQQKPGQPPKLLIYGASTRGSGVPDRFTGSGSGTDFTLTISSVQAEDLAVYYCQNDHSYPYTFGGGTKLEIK : provide luciferase signal in T cell activation, EC50
8.54
